# Tested on: human neuronal calcium channel α1B-1 subunit (expressed alone) (human), Q00975
# Sequence (Q00975 whole entry Y99N): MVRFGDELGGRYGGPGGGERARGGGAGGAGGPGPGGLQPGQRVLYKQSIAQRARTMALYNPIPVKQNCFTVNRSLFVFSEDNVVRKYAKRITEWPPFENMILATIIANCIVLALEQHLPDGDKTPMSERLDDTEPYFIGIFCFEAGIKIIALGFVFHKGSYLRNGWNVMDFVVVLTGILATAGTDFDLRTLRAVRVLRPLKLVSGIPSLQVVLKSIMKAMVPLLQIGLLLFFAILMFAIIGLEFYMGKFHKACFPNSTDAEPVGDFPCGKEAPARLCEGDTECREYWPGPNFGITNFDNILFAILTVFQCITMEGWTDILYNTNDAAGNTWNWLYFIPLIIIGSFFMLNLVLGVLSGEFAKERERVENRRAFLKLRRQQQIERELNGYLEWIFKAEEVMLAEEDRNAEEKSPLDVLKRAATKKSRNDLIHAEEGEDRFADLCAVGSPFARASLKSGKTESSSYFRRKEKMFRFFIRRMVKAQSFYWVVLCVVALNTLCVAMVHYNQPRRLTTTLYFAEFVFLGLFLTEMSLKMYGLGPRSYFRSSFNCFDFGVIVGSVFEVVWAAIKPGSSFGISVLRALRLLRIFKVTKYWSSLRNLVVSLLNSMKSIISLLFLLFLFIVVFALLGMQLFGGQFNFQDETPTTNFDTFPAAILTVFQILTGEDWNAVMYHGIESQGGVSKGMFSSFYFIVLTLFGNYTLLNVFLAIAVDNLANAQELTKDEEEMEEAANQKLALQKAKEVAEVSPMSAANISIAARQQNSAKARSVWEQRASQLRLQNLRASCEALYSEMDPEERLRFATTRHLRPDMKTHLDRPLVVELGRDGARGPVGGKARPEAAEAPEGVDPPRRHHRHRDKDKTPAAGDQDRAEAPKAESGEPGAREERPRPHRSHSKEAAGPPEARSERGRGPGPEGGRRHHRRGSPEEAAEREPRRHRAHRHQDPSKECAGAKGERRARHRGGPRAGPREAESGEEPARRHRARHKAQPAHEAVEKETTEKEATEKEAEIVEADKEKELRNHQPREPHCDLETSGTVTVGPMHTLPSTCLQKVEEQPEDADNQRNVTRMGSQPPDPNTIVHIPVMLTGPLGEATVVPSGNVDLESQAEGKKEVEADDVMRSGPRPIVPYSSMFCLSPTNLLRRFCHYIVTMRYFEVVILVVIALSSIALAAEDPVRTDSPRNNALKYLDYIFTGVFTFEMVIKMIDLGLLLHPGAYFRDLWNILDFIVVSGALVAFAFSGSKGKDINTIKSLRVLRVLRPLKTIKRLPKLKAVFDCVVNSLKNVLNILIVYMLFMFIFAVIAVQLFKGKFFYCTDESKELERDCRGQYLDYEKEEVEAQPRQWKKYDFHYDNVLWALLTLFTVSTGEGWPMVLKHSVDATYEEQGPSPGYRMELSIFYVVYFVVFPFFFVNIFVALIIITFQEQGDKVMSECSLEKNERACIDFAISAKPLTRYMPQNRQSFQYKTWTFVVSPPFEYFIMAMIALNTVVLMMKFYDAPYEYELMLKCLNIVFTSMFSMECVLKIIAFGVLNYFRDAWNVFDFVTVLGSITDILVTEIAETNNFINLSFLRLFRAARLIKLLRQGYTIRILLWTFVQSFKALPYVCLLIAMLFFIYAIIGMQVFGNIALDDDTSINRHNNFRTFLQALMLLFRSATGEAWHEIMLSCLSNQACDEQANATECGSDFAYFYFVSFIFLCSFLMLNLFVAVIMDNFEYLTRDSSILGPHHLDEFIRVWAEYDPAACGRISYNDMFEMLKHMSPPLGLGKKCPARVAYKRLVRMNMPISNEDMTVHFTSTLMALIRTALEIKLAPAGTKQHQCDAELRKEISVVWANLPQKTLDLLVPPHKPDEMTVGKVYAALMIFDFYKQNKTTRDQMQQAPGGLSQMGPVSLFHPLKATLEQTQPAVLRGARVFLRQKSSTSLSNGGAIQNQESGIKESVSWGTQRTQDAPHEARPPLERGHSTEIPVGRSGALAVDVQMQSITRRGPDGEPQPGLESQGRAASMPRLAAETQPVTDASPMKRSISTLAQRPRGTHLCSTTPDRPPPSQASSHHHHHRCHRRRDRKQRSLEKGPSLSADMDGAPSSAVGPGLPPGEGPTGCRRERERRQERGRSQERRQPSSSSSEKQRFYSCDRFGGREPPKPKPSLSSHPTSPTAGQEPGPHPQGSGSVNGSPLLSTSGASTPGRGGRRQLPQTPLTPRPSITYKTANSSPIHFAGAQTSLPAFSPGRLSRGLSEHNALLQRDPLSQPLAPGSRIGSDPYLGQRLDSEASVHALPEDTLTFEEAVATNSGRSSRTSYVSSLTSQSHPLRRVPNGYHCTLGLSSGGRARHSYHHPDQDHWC
Recorded endpoint: Kd (nM)
API: value field is a number in nM; no unit string.

Query: Look at this binder and give its reported Kd. CKSPGSSCSPTSYNCCRSCNPYTKRCYG (modifications not checked) [125I-ω-CgTx GVIA, P01522 46-73]
Reply: 0.0317
